ASSAY_SYSTEM: human Fab of κ-type (Homo sapiens, UniProt P01834+P01857)
Sequence (P01857 with tags, fused parts or gaps, other chains not shown): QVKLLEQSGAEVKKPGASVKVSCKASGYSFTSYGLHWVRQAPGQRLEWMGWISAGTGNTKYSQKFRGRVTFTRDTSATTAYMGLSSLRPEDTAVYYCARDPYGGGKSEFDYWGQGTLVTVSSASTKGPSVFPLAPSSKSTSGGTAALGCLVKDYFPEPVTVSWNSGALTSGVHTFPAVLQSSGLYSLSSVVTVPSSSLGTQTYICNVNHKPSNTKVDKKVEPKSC
TEST: STD NMR screening (1D saturation transfer difference) for binding to antibody
Design: key: 0 no; 1 weak; 2 strong signal
CONDITION_NOTES: 100 nM antibody, 0.5 mM ligand
// reported NMR signal conc 2 for each item listed
REPORTED_METRIC: NMR signal conc 2

INSERT INTO assay_data (compound, assay_system, reported_metric, value_measured) VALUES
  ('CN(C)C(=O)N(C)c1ccc(Cl)c(Cl)c1', 'human Fab of κ-type (Homo sapiens, UniProt P01834+P01857)', 'NMR signal conc 2', 2),
  ('O=C1CN(c2ccccc2)C(=O)N1c1ccccc1', 'human Fab of κ-type (Homo sapiens, UniProt P01834+P01857)', 'NMR signal conc 2', 2),
  ('OC(CNCc1ccc(Cl)cc1)CSc1ccccc1 (centres unmarked)', 'human Fab of κ-type (Homo sapiens, UniProt P01834+P01857)', 'NMR signal conc 2', 0),
  ('OCC(Oc1ccccc1)c1ccccc1 (centres unmarked)', 'human Fab of κ-type (Homo sapiens, UniProt P01834+P01857)', 'NMR signal conc 2', 1),
  ('OC(CNCc1ccccc1)C(F)(F)F (centres unmarked)', 'human Fab of κ-type (Homo sapiens, UniProt P01834+P01857)', 'NMR signal conc 2', 0);
